tgt: UniProt P07711
Sequence (P07711 114-333 limits assumed): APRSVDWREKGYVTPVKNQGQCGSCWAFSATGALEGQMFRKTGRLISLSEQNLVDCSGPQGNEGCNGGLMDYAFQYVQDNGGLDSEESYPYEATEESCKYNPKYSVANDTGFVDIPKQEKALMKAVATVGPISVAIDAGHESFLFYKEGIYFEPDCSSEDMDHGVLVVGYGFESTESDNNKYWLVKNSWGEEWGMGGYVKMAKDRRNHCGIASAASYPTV
run_description: Inhibition of human cathepsin L using Z-FR-AMC substrate assessed as inhibition association constant by fluorimetric assay
reported_property: INH (M⁻¹ s⁻¹)

Some compounds with known INH results, for comparison:
sample_smiles | unit_string | INH
COc1ccc(-c2ccc3n2[B-](F)(F)[N+]2=C(C)C(CCC(=O)NCCCCCC(=O)NCCCC[C@@H](NC(=O)[C@@H](Cc4ccccc4)NC(=O)OCc4ccccc4)C(=O)COC(=O)c4c(C)cccc4C)=C(C)C2=C3)cc1 | M⁻¹ s⁻¹ | 2580
COc1ccc(-c2ccc3n2[B-](F)(F)[N+]2=C(C)C(CCC(=O)NCCCCCC(=O)NCCCC[C@@H](NC(=O)[C@@H](Cc4ccccc4)NC(=O)OCc4ccccc4)C(=O)COC(=O)CNC(=O)C4CCN(S(=O)(=O)c5ccccc5-c5c6cc/c(=[N+](/C)c7ccccc7)cc-6oc6cc(Nc7ccccc7)ccc56)CC4)=C(C)C2=C3)cc1 | M⁻¹ s⁻¹ | 7000

(1) COc1ccc(-c2ccc3n2[B-](F)(F)[N+]2=C(C)C(CCC(=O)NCCCCCC(=O)NCCCC[C@@H](NC(=O)[C@H](N)Cc4ccccc4)C(=O)COC(=O)c4c(C)cccc4C)=C(C)C2=C3)cc1
(2) COc1ccc(-c2ccc3n2[B-](F)(F)[N+]2=C(C)C(CCC(=O)NCCCCCC(=O)NCCCC[C@@H](NC(=O)[C@@H](Cc4ccccc4)NC(=O)OC(C)(C)C)C(=O)COC(=O)c4c(C)cccc4C)=C(C)C2=C3)cc1
Between 1 and 2 , whose measured INH reads higher? Write the label of whichever entry you select.
1

* * *

tgt: Cathepsin B (Bos taurus) (UniProt P07688)
run_description: Inhibition of bovine cathepsin B using Z-RR-AMC substrate assessed as inhibition association constant by fluorimetric assay
reported_property: INH (M⁻¹ s⁻¹)

sample_smiles | tgt | INH (M⁻¹ s⁻¹)
COc1ccc(-c2ccc3n2[B-](F)(F)[N+]2=C(C)C(CCC(=O)NCCCCCC(=O)NCCCC[C@@H](NC(=O)[C@@H](Cc4ccccc4)NC(=O)OCc4ccccc4)C(=O)COC(=O)CNC(=O)C4CCN(S(=O)(=O)c5ccccc5-c5c6cc/c(=[N+](/C)c7ccccc7)cc-6oc6cc(Nc7ccccc7)ccc56)CC4)=C(C)C2=C3)cc1 | Cathepsin B (Bos taurus) (UniProt P07688) | 275

(A) COc1ccc(-c2ccc3n2[B-](F)(F)[N+]2=C(C)C(CCC(=O)NCCCCCC(=O)NCCCC[C@@H](NC(=O)[C@@H](Cc4ccccc4)NC(=O)OC(C)(C)C)C(=O)COC(=O)c4c(C)cccc4C)=C(C)C2=C3)cc1
(B) COc1ccc(-c2ccc3n2[B-](F)(F)[N+]2=C(C)C(CCC(=O)NCCCCCC(=O)NCCCC[C@@H](NC(=O)[C@@H](Cc4ccccc4)NC(=O)OCc4ccccc4)C(=O)COC(=O)c4c(C)cccc4C)=C(C)C2=C3)cc1
(C) COc1ccc(-c2ccc3n2[B-](F)(F)[N+]2=C(C)C(CCC(=O)NCCCCCC(=O)NCCCC[C@@H](NC(=O)[C@H](N)Cc4ccccc4)C(=O)COC(=O)c4c(C)cccc4C)=C(C)C2=C3)cc1
Endpoint returns the given compounds ordered by ascending INH. Write the labels, ordered according to the request.
A, B, C
